Where do these numbers come from? They come from patent US20080293699A1.

# System: phospho-c-Jun
# method.summary: Immunoblotting of thapsigargin-induced c-Jun phosphorylation in CSM14.1 cells
# Type: cell-based, rat
# setup.conditions: immunoblotting with phospho-specific antibody, 10 μM, 25 μM hits
reported.property: Thapsigargin-induced phosphorylation of c-Jun

compound	system	experimental.result
COc1ccc(C2CC(=O)C3=C(C2)Nc2ccccc2NC3c2ccncc2)cc1OC (centres unmarked)	phospho-c-Jun	fail to suppress
CCCOc1ccc(C2Nc3ccccc3NC3=C2C(=O)CC(c2ccc(OC)c(OC)c2)C3)cc1 (centres unmarked)	phospho-c-Jun	dose-dependent decrease
COc1ccc(C2CC(=O)C3=C(C2)Nc2ccccc2NC3c2cccc(O)c2)cc1 (centres unmarked)	phospho-c-Jun	fail to suppress
COc1ccc(C2CC(=O)C3=C(C2)Nc2ccccc2NC3c2ccccc2C(F)(F)F)cc1OC (centres unmarked)	phospho-c-Jun	dose-dependent decrease
